assay.target: Gamma-aminobutyric acid receptor subunit alpha-1 (Rattus norvegicus, UniProt P62813); note: assay procedure not described here
Sequence (P62813 whole entry): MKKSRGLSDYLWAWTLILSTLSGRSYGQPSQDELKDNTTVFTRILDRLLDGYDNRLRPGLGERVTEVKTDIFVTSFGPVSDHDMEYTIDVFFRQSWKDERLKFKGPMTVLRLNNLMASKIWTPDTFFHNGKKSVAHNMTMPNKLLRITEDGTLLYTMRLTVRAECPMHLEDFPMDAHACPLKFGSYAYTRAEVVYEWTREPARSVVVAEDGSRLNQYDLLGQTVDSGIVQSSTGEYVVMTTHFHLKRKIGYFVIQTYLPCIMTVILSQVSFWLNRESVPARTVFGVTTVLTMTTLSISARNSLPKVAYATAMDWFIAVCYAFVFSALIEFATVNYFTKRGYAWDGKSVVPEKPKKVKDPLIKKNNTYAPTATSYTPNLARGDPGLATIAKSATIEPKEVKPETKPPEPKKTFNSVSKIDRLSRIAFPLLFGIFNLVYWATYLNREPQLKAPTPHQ
Assay type: functional
Task for the reader: assign each of the following molecules its reported AC50.

These solved cases illustrate the format of a correct answer.
INSERT INTO results (molecule, result) VALUES
  ('CN(C)/N=N/c1[nH]cnc1C(N)=O [DACARBAZINE]', '> 10 µM'),
  ('CC(Oc1c(Cl)cccc1Cl)C1=NCCN1 (centres undefined) [LOFEXIDINE]', '> 30 µM'),
  ('CN1CCN(CC/C=C2/c3ccccc3Sc3ccc(S(=O)(=O)N(C)C)cc32)CC1 [THIOTHIXENE]', '> 10 µM'),
  ('Clc1ccccc1C(c1ccccc1)(c1ccccc1)n1ccnc1 [CLOTRIMAZOLE]', '> 10 µM'),
  ('CC1=C(C(=O)O)N2C(=O)[C@@H](NC(=O)[C@H](N)c3ccccc3)[C@H]2SC1 [CEPHALEXIN ANHYDROUS]', '> 10 µM'),
  ('CN1C(=O)OC(C)(C)C1=O [TRIMETHADIONE]', '> 10 µM'),
  ('CC(C)(C)C(=O)Oc1ccc(S(=O)(=O)Nc2ccccc2C(=O)NCC(=O)O)cc1', '> 30 µM'),
  ('COc1ccc(C(=O)Nc2ccccc2CCC2CCCCN2C)cc1 (centres undefined) [ENCAINIDE]', '> 10 µM');

Proceed to the following item.
Inquiry: I'd like to know its AC50. The molecule in question is C[C@]12CC[C@H]3[C@@H](CCC4=CC(=O)CC[C@@]43C)[C@@H]1CC[C@@H]2O [TESTOSTERONE]
Reply text: > 10 µM
